target.entity: Androgen receptor (Homo sapiens) (UniProt P10275)
Sequence (P10275 whole entry, looked up): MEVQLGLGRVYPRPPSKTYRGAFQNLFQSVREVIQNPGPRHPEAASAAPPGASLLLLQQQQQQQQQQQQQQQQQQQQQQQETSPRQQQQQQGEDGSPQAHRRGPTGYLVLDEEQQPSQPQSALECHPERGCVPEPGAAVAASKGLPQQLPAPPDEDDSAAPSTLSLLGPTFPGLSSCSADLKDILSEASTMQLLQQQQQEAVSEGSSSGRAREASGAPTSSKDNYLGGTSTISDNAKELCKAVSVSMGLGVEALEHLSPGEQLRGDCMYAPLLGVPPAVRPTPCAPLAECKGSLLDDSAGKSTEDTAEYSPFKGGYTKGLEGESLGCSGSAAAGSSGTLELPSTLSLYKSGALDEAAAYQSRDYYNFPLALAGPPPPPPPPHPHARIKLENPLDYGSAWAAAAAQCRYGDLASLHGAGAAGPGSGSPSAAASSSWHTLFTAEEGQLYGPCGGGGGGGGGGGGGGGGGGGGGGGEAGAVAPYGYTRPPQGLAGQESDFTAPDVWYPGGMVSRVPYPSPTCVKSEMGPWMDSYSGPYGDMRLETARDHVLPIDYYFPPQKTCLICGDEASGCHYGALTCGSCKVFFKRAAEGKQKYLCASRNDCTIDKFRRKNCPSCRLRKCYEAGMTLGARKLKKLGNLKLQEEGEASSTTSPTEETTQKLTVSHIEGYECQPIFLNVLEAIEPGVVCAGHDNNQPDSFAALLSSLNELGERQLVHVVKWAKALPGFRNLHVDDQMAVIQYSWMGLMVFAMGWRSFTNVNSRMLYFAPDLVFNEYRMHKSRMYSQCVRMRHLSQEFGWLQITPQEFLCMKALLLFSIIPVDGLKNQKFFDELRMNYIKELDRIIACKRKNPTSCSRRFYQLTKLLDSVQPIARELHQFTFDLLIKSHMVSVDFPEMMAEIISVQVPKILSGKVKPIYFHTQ
experiment.description: qHTS assay to identify small molecule agonists of the androgen receptor (AR) signaling pathway in the presence of an antagonist (AID 1259381); further: on the % scale 0 is the no-effect control and ±100 the full control effect; nearly all actives have a fitted effect of over 15% in size
details: MDA-kb2 MMTV-luciferase, AR agonist + nilutamide, 16 h; series mostly up to 92.4 µM
Calls of active or inactive are those of the source. The call rests on the fitted dose curve.
property: activation

Worked cases, answers included:
>>> observed("CCCCCCCCCCCCCCCCCCNC(=O)OC1CCN(C(=O)OC[C@H](COC(=O)N(Cc2cccc[n+]2CC)C(=O)c2ccccc2OC)OC)CC1")
"inactive"
>>> observed("Nc1ccc2c(S(=O)(=O)O)cccc2c1S(=O)(=O)O")
"inactive"
>>> observed("CC(C)(C)c1cc(CCC(=O)OCCSCCOC(=O)CCc2cc(C(C)(C)C)c(O)c(C(C)(C)C)c2)cc(C(C)(C)C)c1O")
"inactive"
>>> observed("N#CCCOCCC#N")
"inactive"
>>> observed("C=C1C(CCl)(CCl)C2(Cl)C(Cl)C(Cl)C1(Cl)C2(Cl)Cl (stereo unspecified)")
"inactive"

# activation lookup, item CC(=O)[C@]1(O)Cc2c(O)c3c(c(O)c2[C@@H](O[C@H]2C[C@H](N)[C@H](O)[C@H](C)O2)C1)C(=O)c1ccccc1C3=O inactive

# activation lookup, item O=C(CCCCCCCCc1cccnc1)N1CCC(C=C(c2ccccc2)c2ccccc2)CC1 inactive

# activation lookup, item Cc1ccc(S(=O)(=O)C(I)I)cc1 inactive

# activation lookup, item C=CC(=O)OCCOC1C2CCC1C1CC=CC12 (stereo unspecified) 0.68% [at 19 µM] (inactive)

# activation lookup, item O=C(NCc1ncc(C(F)(F)F)cc1Cl)c1c(Cl)cccc1Cl inactive

# activation lookup, item C=CC(C)(C)O inactive

* * *

experiment.description: qHTS assay to identify small molecule agonists of the estrogen receptor alpha (ER-alpha) signaling pathway in the presence of an antagonist - cell viability counter screen (AID 1259386);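 further: cells exposed to compounds for 22 h at 37 °C before the viability read; nearly all actives have a fitted effect of over 30% in size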
details: VM7Luc4E2 viability, CellTiter-Fluor fluorescence, 22 h; series mostly up to 92.4 µM
Records with an inconclusive call do not appear. Active and inactive are the calls of the source. Calls come from the whole dose curve; as a rule, active = well fitted cell-killing curve with a large enough effect in the repeat runs; inconclusive = weak or mixed curves, or effect the other way; inactive = no such curve, though single readings can be large or run the other way.
Reply using exactly one outcome from class 1 (active), class 0 (inactive)

These solved cases illustrate the format of a correct answer.
>>> group_label("CCN(CC)c1ccc2c(c1)Oc1cc(N(CC)CC)ccc1C21OC(=O)c2ccccc21")
"class 1"
>>> group_label("O=C(Nc1ccccc1)c1cc(Cl)ccc1O")
"class 1"
>>> group_label("Clc1nc(C(Cl)(Cl)Cl)c(Cl)c(Cl)c1Cl")
"class 0"
>>> group_label("C=CC(=O)OCC(Br)CBr (configuration not stated)")
"class 0"
>>> group_label("Nc1c(Br)cc([N+](=O)[O-])cc1Br")
"class 0"
>>> group_label("O=C(NCc1ncc(C(F)(F)F)cc1Cl)c1c(Cl)cccc1Cl")
"class 0"

Consider now this further molecule.
Recorded test call requested for Oc1cccc2c(O)cccc12 class 0

* * *

experiment.description: qHTS RealTime-Glo MT Cell Viability Assay in HEK293 cells - 40 hour (AID 1224874); further: potency means the concentration at half of the fitted maximal effect; nearly all actives have a fitted effect of over 50% in size
details: RealTime-Glo luminescence
Description: U.S. Tox21 Program National Center for Advancing Translational Sciences [NCATS] NIH Chemical Genomics Center [NCGC] U.S. Environmental Protection Agency [EPA] National Institutes of Environmental Health Sciences [NIEHS] National Toxicology Program [NTP] U.S. Food and Drug Administration [FDA] Tox21 Assay Overview: Measure of cell viability is critical in the cell-base assay. Analysis of cell viability is necessary for the characterization of cell responses to cytotoxic drugs and environmental stress. […]
Results filed as inconclusive are left out. Activity calls are given as the source filed them. The call rests on the fitted dose curve; in most records, active means well fitted cell-killing curve with a large enough effect in the repeat runs; inconclusive means weak or mixed curves, or effect the other way; inactive means flat fitted curve, though single readings scatter.
Below is a list of entries, each paired with its recorded Potency value.

Worked cases, answers included:
>>> observed("c1ccc(-c2ccc(C(c3ccccc3)n3ccnc3)cc2)cc1 (stereo not drawn)")
"26.8 µM (active)"
>>> observed("CN[C@H]1CC[C@@H](c2ccc(Cl)c(Cl)c2)c2ccc(S(N)(=O)=O)cc21")
"19.5 µM (active)"
>>> observed("Cc1cc(Br)ccc1NC(=O)CCl")
"19.5 µM (active)"
>>> observed("CN(C[C@@H](CC[N+]12CCC(C3CCCCC3)(CC1)CC2)c1ccc(Cl)c(Cl)c1)C(=O)c1cc(C(F)(F)F)cc(C(F)(F)F)c1")
"2.19 µM (active)"
>>> observed("Cc1ccc(S(=O)(=O)C(I)I)cc1")
"8.71 µM (active)"
>>> observed("C[C@H]1O[C@@H](O[C@H]2CC[C@@]3(C)[C@H](CC[C@@H]4[C@@H]3C[C@@H](O)[C@]3(C)[C@@H](C5=CC(=O)OC5)CC[C@]43O)C2)C[C@H](O)[C@@H]1O[C@H]1C[C@H](O)[C@H](O[C@H]2C[C@H](O)[C@H](O[C@@H]3O[C@H](CO)[C@@H](O)[C@H](O)[C@H]3O)[C@@H](C)O2)[C@@H](C)O1")
"0.239 µM (active)"
>>> observed("CC/C(=C(/c1ccc(O)cc1)c1ccc(OCCN(C)C)cc1)c1ccccc1")
"8.12 µM (active)"

// below: Potency requested for another compound
# Potency lookup, item CN1CC[C@H](c2c(O)cc(O)c3c(=O)cc(-c4ccccc4Cl)oc23)[C@H](O)C1 0.19 µM (active)
